System: Spodoptera frugiperda larvae
Assay: whole plant or invertebrate
Type: in vivo
Details: concentration 100 µg/mL
The reader will find reported Antifeedant index (% AI) values listed item by item below.
Report the figure in % without appending any unit label.

molecule=CCCc1ccc(O)c(OC)c1 target_of_assay="Spodoptera frugiperda larvae" recorded_metric="Antifeedant index (% AI)" observed_result=26.7

What Antifeedant index (% AI) value was documented for this molecule, CC=Cc1ccc(OC(=O)c2ccc([N+](=O)[O-])cc2)c(OC)c1 ?
30.2

Next record, please: C=CCc1ccc(O)c(OC)c1
44.9

Now the molecule CC1(C)C(C=C(Cl)Cl)C1C(=O)OC(C#N)c1cccc(Oc2ccccc2)c1 (centres unmarked) [Cypermethrin, cypermethrin, reference compound]
61.0

Hey, just so you know, these numbers are from paper PMC6864136.
